assay: Drug degradation in mouse plasma at 50 uM after 24 to 48 hrs by RP-HPLC analysis; type: ADME, cell-free; conditions: read-out: Drug degradation
Starred links: 1 amine or outer side, 2 acyl side, 3 side chain; linkers in the order of their positions; H or OH if unused. Positions of bridges follow the written chain, without caps; N, C: chain ends. Residues, ends and D or L forms follow the SMILES beside them. pXylylene = c1cc(C[*:2])ccc1C[*:1]
MEASURE_NAME: metabolised at 50 µM (%)
# output: bare number, implied unit %

Write down metabolised at 50 µM measured for item CC(C)[C@@H]1NC(=O)[C@H](CCC(=O)O)NC(=O)[C@H](Cc2ccc(O)cc2)NC(=O)[C@H](CCCNC(=N)N)NC(=O)[C@H](CO)NC(=O)[C@@H](NC(=O)[C@H](C)N)CSCc2ccc(cc2)CSC[C@@H](C(=O)NCC(N)=O)NC(=O)[C@H](C)NC(=O)[C@H](CO)NC(=O)CNC(=O)[C@H](CCCNC(=N)N)NC(=O)CNC(=O)[C@H](CCCNC(=N)N)NC(=O)[C@H](CO)NC(=O)[C@H](CC(=O)O)NC1=O (H-ACSRYEVDSRGRGSACG-NH2; linker 2-16 via pXylylene)
60
